Source of measurements: patent US5599793A

Quick reference for Enzyme Kass, Human Thrombin among some molecules
# Target Desc: UniProt:P00734
# Assay Overview: Inhibition of amidase activity of thrombin (Kass)
# Assay type: biochemical
# Condition Summary: apparent association constant, mean over a range of concentrations
Number only, in L/mol × 10^6; omit the unit.

These solved cases illustrate the format of a correct answer.
{"columns": ["Molecule", "Target Desc", "Units Of Measure", "Enzyme Kass, Human Thrombin"],
 "data": [
  ["CCS(=O)(=O)N[C@H](Cc1ccccc1)C(=O)N1[C@H](C(=O)N[C@H](C=O)CCCNC(=N)N)C[C@@H]2CCCC[C@@H]21.Cl (relative stereo) [Example 23, EtSO2 -D-Phe-cis-Ohi-ArgH.HCl]", "UniProt:P00734", "L/mol × 10^6", 957],
  ["Cl.Cl.NC(N)=NCCCC(C=O)NC(=O)C1CC(Oc2ccccc2)CN1C(=O)C1NCCC2CCCCC21 [Example 14, L-1-Piq-Pro(4-cis-phenoxy)-ArgH.2 HCl]", "UniProt:P00734", "L/mol × 10^6", 8.7],
  ["Cl.Cl.N=C(N)NCCC[C@@H](C=O)NC(=O)[C@@H]1C[C@H](Oc2cccc(N)c2)CN1C(=O)[C@H]1CCCCN1 (relative stereo)", "UniProt:P00734", "L/mol × 10^6", 2.1]
]}

Now for a further molecule.
Challenge: What is its Enzyme Kass, Human Thrombin for UniProt:P00734? Entry: Cl.Cl.Cl.N=C(N)NCCC[C@@H](C=O)NC(=O)[C@@H]1C[C@H](Oc2ccc(N)cc2)CN1C(=O)[C@H]1CCCCN1 (relative stereo)
Response given: 28

###

# Target Desc: Human Thrombin (Homo sapiens, UniProt P00734)
# Assay Overview: Inhibition of amidase activity of thrombin (Kass)
# Format: biochemical
# Condition Summary: apparent association constant, mean over a range of concentrations
Readout Name: Enzyme Kass, Human Thrombin (L/mol × 10^6)
Number only, in L/mol × 10^6; omit the unit.

These solved cases illustrate the format of a correct answer.
{"columns": ["Compound", "Units Of Measure", "Enzyme Kass, Human Thrombin"],
 "data": [
  ["CCC[C@H]1C[C@@H](C(=O)N[C@H](C=O)CCCNC(=N)N)N(C(=O)[C@H]2CCCCN2)C1.Cl.Cl (relative stereo) [Example 3, D-hPro-Pro(4-cis-n-propyl)-ArgH.2 HCl]", "L/mol × 10^6", 27],
  ["CC[C@H]1C[C@@H](C(=O)N[C@H](C=O)CCCNC(=N)N)N(C(=O)[C@H]2CCCCN2)C1.Cl.Cl (relative stereo) [Example 2]", "L/mol × 10^6", 230],
  ["CCS(=O)(=O)N[C@H](C(=O)N1C[C@@H](Oc2ccccc2)C[C@H]1C(=O)N[C@H](C=O)CCCNC(=N)N)c1ccccc1.Cl (relative stereo) [Example 16, EtSO2 -L-Phg-Pro(4-cis-phenoxy)-ArgH.HCl]", "L/mol × 10^6", 43],
  ["CC(C)CC[C@H]1C[C@@H](C(=O)N[C@H](C=O)CCCNC(=N)N)N(C(=O)[C@H]2CC3CCCCC3CN2)C1.Cl.Cl (relative stereo) [Example 27]", "L/mol × 10^6", 5.4]
]}

Challenge: What is its Enzyme Kass, Human Thrombin for Human Thrombin (Homo sapiens, UniProt P00734)? Entry: Cl.Cl.N=C(N)NCCC[C@@H](C=O)NC(=O)[C@@H]1C[C@H](c2ccccc2)CN1C(=O)[C@H]1CCCCN1 (relative stereo) [Example 6, D-hPro-Pro(4-cis-phenyl)-ArgH.2 HCl]
Response given: 2.9
